Target: human α5β2γ2S GABAAR (Homo sapiens, UniProt P18507+P31644+P47870)
Sequence (P31644 32-462): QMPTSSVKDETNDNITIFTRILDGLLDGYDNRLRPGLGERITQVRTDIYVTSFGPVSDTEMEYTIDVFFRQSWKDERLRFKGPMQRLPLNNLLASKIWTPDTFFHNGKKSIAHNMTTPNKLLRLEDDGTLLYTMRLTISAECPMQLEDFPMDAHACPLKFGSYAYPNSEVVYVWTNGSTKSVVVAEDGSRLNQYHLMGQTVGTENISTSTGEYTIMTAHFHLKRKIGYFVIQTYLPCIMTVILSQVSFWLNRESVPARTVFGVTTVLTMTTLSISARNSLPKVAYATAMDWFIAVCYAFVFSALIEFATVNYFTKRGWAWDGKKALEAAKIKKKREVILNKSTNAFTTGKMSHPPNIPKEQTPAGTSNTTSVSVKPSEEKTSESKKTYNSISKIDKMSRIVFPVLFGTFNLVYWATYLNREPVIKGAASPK
Sequence (P47870 26-474 isoform P47870-1 limits assumed): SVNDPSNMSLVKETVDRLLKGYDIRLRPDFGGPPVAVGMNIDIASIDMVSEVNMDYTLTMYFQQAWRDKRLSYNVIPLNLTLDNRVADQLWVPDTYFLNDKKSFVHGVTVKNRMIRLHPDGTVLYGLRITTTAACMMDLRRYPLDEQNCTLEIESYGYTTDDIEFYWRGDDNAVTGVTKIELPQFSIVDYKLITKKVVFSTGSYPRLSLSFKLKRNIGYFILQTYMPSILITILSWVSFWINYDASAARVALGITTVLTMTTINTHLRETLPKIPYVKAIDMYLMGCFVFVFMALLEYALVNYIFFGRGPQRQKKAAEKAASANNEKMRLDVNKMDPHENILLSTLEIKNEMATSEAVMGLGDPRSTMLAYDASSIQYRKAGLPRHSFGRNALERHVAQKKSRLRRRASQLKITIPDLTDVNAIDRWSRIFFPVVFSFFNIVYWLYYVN
Sequence (P18507 40-467 isoform P18507-1 limits assumed): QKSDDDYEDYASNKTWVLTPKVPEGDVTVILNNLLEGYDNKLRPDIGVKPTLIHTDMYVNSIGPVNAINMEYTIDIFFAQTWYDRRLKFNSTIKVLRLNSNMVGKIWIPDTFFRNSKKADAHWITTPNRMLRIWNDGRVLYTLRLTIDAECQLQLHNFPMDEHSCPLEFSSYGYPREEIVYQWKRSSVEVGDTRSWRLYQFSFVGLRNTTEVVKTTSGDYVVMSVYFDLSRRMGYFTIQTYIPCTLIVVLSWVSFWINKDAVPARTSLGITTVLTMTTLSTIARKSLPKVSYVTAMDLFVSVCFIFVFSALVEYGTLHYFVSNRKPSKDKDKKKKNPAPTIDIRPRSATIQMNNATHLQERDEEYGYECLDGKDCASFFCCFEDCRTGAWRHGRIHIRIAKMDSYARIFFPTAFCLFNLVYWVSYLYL
Assay: Potentiation of GABA EC20-evoked currents, TEVC in Xenopus oocytes
Source text: The cDNAs encoding the human GABAAR subunits were linearized with DraIII (α1, α2, α3, α5 and α6), SmaI (β2 and γ2S) or StuI (δ) and used as templates for in vitro cRNA synthesis using the T7 mMESSAGE mMACHINE High Yield Capped RNA Transcription Kit (Life Technologies Corporation, Carlsbad, CA, USA). […]
recorded.endpoint: EC50 (nM)
All answers are understood in nM, so give the number only.

Query: Consider the compound shown here: O=C1CC(=O)N(c2ccccc2)c2cc(Cl)ccc2N1 [N-desmethylclobazam] What is its recorded EC50?
Reply: 98

Query: Field entry: CN1C(=O)CC(=O)N(c2ccccc2)c2cc(Cl)ccc21 [clobazam]
Reply: 174

Query: Field entry: O=C1CN=C(c2ccccc2Cl)c2cc([N+](=O)[O-])ccc2N1 [clonazepam]
Reply: 20.9
